In this section, each of the molecules is paired with its reported percent reduction in concentration compared to the control strain, SULT1A1.
Biological target: SULT1A1 from rat (Rattus norvegicus)
Construct: 1, 3, 4, 5, and 6 were cloned amplified from liver tissue cDNA (Zyagen) by PCR; expressed in transfected cells; host or cells: E. coli BL21(DE3)pLysS, plasmid pETDuet-1
Assay: Sulfation of phenolic compounds in vivo by E. coli strain expressing sulfotransferase
Type: cell-based
Details: M9, 1 mM IPTG, overnight 37° C.; start concentration per compound 61-287 μM
Numbers only; they are read as %.

// query Return reported percent reduction in concentration compared to the control strain, SULT1A1; argument: O=C(O)c1ccc(O)cc1 [4-hydroxybenzoic acid]
// result 5

// query Returns the measured percent reduction in concentration compared to the control strain, SULT1A1 for the input molecule. Input: O=c1cc(-c2ccc(O)c(O)c2)oc2cc(O)cc(O)c12
// result 27

// query Fill in: percent reduction in concentration compared to the control strain, SULT1A1 of COc1cc(/C=C/C(=O)O)ccc1O is ___
// result 72

// query # percent reduction in concentration compared to the control strain, SULT1A1 lookup, item O=c1cc(-c2ccc(O)cc2)oc2cc(O)cc(O)c12
// result 41

// query Given the entry O=C(O)C(=O)Cc1ccc(O)cc1 [4-Hydroxyphenyl pyruvic acid] , report its measured percent reduction in concentration compared to the control strain, SULT1A1.
// result 47

###

Biological target: SULT1A1 rat + CysDNCQ (Rattus norvegicus, UniProt P17988)
Construct: 1, 3, 4, 5, and 6 were cloned amplified from liver tissue cDNA (Zyagen) by PCR; expressed in transfected cells; host or cells: E. coli BL21(DE3)pLysS with pETDuet-1 (SULT1A1) and pRSFDuet-1 (cysDNCQ)
Sequence (P17988 whole entry): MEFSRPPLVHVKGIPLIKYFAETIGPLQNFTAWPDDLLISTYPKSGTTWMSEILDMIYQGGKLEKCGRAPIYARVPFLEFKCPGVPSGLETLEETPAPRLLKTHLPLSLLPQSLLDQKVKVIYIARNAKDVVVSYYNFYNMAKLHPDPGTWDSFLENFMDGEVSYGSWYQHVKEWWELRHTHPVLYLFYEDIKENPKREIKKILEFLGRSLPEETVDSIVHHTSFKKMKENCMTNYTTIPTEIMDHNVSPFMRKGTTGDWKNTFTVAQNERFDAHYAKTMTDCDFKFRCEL
Test: Sulfation of phenolic compounds in vivo by E. coli strain expressing sulfotransferase with cysDNCQ
Format: cell-based
Settings: M9, 1 mM IPTG, overnight 37° C.; start concentration per compound 61-287 μM
Cut-off 40% on percent reduction in concentration compared to the control strain, SULT1A1 + CysDNCQ: below means yes (1), at or above means no (0).

Take a look at these entries with their results.
O=c1cc(-c2ccc(O)cc2)oc2cc(O)cc(O)c12 | no (0)
O=C(O)CCc1ccc(O)cc1 [3-(4-Hydroxyphenyl) propionic acid] | yes (1)
O=C(O)C(=O)Cc1ccc(O)cc1 [4-Hydroxyphenyl pyruvic acid] | no (0)

// query Regarding COc1cc(/C=C/C(=O)O)ccc1O , kindly confirm whether its percent reduction in concentration compared to the control strain, SULT1A1 + CysDNCQ is beneath 40%.
// result no (0)

// query Here's an entry: O=C(O)c1ccc(O)cc1 [4-hydroxybenzoic acid] . Is its percent reduction in concentration compared to the control strain, SULT1A1 + CysDNCQ below 40%?
// result yes (1)

// query Hi there! Is percent reduction in concentration compared to the control strain, SULT1A1 + CysDNCQ for O=c1c(O)c(-c2ccc(O)c(O)c2)oc2cc(O)cc(O)c12 below 40%, do you know?
// result no (0)

// query Determine whether this compound shows percent reduction in concentration compared to the control strain, SULT1A1 + CysDNCQ lower than 40% (ties excluded): O=c1c(O)c(-c2ccc(O)c(O)c2)oc2cc(O)ccc12
// result no (0)

// query Please determine if CC(=O)Nc1ccc(O)cc1 [4-acetamidophenol, reference compound] is below 40% in terms of percent reduction in concentration compared to the control strain, SULT1A1 + CysDNCQ.
// result yes (1)

// query Please state whether percent reduction in concentration compared to the control strain, SULT1A1 + CysDNCQ is below 40% for O=c1cc(-c2ccc(O)c(O)c2)oc2cc(O)cc(O)c12
// result yes (1)

###

Target: SULT1A1 from rat (Rattus norvegicus, UniProt P17988)
Construct: 1, 3, 4, 5, and 6 were cloned amplified from liver tissue cDNA (Zyagen) by PCR; expressed in transfected cells; host or cells: E. coli BL21(DE3)pLysS, plasmid pETDuet-1
Sequence (P17988 whole entry): as above
Assay: Sulfation of phenolic compounds in vivo by E. coli strain expressing sulfotransferase
Format: cell-based
Settings: M9, 1 mM IPTG, overnight 37° C.; start concentration per compound 61-287 μM
Text: The concentration of p-courmaric acid (pHCA) and zosteric acid in the supernatant was quantified by high performance (HPLC) and compared to chemical standards. […] The strains were precultured in 2×YT medium with appropriate antibiotics. […] The compounds were detected by UV absorbance.
Classify by measured percent reduction in concentration compared to the control strain, SULT1A1: Condition met if it is equal to or exceeds 80%, Condition not met if it is smaller.

Worked examples follow.
O=c1c(O)c(-c2ccc(O)c(O)c2)oc2cc(O)cc(O)c12 | Condition not met
O=c1c(O)c(-c2ccc(O)c(O)c2)oc2cc(O)ccc12 | Condition met
CC(=O)Nc1ccc(O)cc1 [4-acetamidophenol, reference compound] | Condition not met

// query Does the compound O=C(O)CCc1ccc(O)cc1 [3-(4-Hydroxyphenyl) propionic acid] have recorded percent reduction in concentration compared to the control strain, SULT1A1 that is 80% or more?
// result Condition not met

// query Quick check, percent reduction in concentration compared to the control strain, SULT1A1 >= 80%? COc1cc(C(=O)O)ccc1O
// result Condition not met
